// composite z-score lookup, one value per entry
Test system: Human papillomavirus type 1a E7 protein (residues 1-88)
assay method text: HPV1a E7 small-molecule binders, primary screen, biochemical, small-molecule microarray, residues 1-88, 635 nm (AID 1129)
applied conditions: small-molecule microarray binding, fluorescence 635 nm; higher = more signal
Form: value (number only, do not type unit).

Recorded composite z-score, per entry:
compound	composite z-score
CN(C)C(=O)[C@@]1(Cc2ccccc2CN=[N+]=[N-])COC(c2ccc(OCCCO)cc2)=N1	1.15
COc1ccc(C(O)C2C=CC3C(=O)N(c4ccccc4)C(=O)C3N2Nc2ccc(C#N)cc2)cc1OCc1ccccc1 (configuration not stated)	1.21
CC(C)(C)N1CC=CC23O[C@@H]4/C=C\CCCOC(=O)C4[C@H]2C(=O)N(CCCCCO)[C@@H]3C1=O (some centres not stated)	-0.75

Value lookup for composite z-score; key = CCOC(=O)C[C@H]1[C@H](OC(=O)Cc2ccc3c(c2)OCO3)[C@@H](NC(=O)c2ccc3ccccc3n2)c2cc(OCCCO)ccc2N1C(=O)Cc1ccc(OC)cc1 0.672

May I ask what composite z-score has been recorded for CN(C)CCCCNC(=O)[C@H]1C[C@H]2C(=O)NCC(=O)N2[C@H]1c1ccc(O)cc1 ? -0.791

Query: composite z-score; subject: COC(=O)C[C@H]1O[C@@]2(C[C@@H]1[Si](C)(C)C)C(=O)N(C)c1ccccc12 0.643

Entry under review: CN(C)c1ccc(C(O)C2C=CC3C(=O)N(Cc4ccccc4)C(=O)C3N2n2cnnc2)cc1 (configuration not stated) . Reported composite z-score? 0.115

Give the measured composite z-score of CC1CC/C=C\[C@H]2OC34C=CCN(C(C)(C)C)C(=O)[C@H]3N(CCCO)C(=O)[C@@H]4C2C(=O)O1 (some centres not stated) . -0.137

---

assay method text: optical density shifts of acrAB sulA E. coli – strain DRC41, OD650, 48 h, E. coli filamentation inducer project, primary screen (AID 1152);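 also: E. coli MC1000 strain DRC41 lacking acrAB efflux pump and sulA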
applied conditions: higher = more signal, called active from +8 up or from −8 down
# Lookup of reported z-score keyed by entry
Could you respond with only the numeric value?

molecule	recorded value
C=CC[C@@]12N=C(c3ccc(OCCCO)cc3)O[C@@H]1c1ccccc1N(CCC)C2=O	1.39
CO[C@H]1O[C@H](CO)[C@@H](OC(=O)Nc2ccc3c(c2)OCO3)[C@H](OC(=O)Nc2ccccc2-c2ccccc2)[C@H]1OC(=O)Nc1ccccc1-c1ccccc1	-0.133
CC(C)=C1C(=O)C(c2ccccc2)=C2CN3C(=O)N(CCc4ccccc4)C(=O)[C@]3(C)[C@H]21	-2.52
COc1ccc([Si](C)(C)[C@H]2[C@H](CC(=O)N3Cc4ccccc4C[C@H]3CO)O[C@@]3(C(=O)N(C)c4c(Br)cc(C)cc43)[C@@H]2C)cc1	-1.05
COC(=O)[C@@]1(Cc2ccc(F)cc2)[C@H]2c3cc(C(=O)N(C)C)n(CCc4ccc(O)c(O)c4)c3C[C@H]2CN1C(=O)c1ccccc1	-0.81

Sample O=C1[C@H]2C=C(I)[C@H](C[C@@H]2c2ccccc2)[C@@]12CO2 — what was its z-score? -1.76

Recorded z-score of N#Cc1ccc(NN2C(C(O)C3CC=CCC3)C=CC3C(=O)N(c4ccccc4)C(=O)C32)cc1 (stereo not given) , please. -0.411

I would be grateful if you could share the reported z-score for C=CCNC(=O)[C@H]1[C@@H]2C(=O)O[C@@H](c3ccccc3)[C@@H](c3ccccc3)N2[C@@H](c2ccc(OCCO)cc2)[C@]12C(=O)Nc1ccccc12 . 0.738

Reported z-score, molecule C=CCC(OC(C)=O)[C@@H]1[C@@H](N(Cc2cccc3ccccc23)C(=O)Cc2ccc(OC)cc2)c2cc(OCCCO)ccc2N1C(=O)c1ccc2ccccc2c1 (stereo not given in full) : ____ 0.808

What does the record list as z-score for CCN(CC)c1ccc(N2CC=CC34O[C@@H]5C=CCCOC(=O)C5[C@H]3C(=O)N(C(C)CO)[C@@H]4C2=O)cc1 (stereo not given in full) ? -0.627

For COC(=O)[C@@]1(Cc2ccc(OC)cc2)[C@H]2c3cc(C(=O)N4CCCC4)n(Cc4ccc(C(F)(F)F)nc4)c3C[C@H]2CN1C(=O)c1ccccc1 , what is its reported z-score? -2.07

If you can, please state the reported z-score value of CC(C)C(=C=CC[C@H](O)c1ccccc1OCCO)C[C@H](O)c1cc(Cl)cc(Cl)c1O . -0.279

Query: z-score; subject: CC(C)N1C(=O)c2ccccc2[C@@H](C(=O)NCC(F)(F)F)[C@@H]1c1ccc(CO)cc1 -0.234

Dear colleague, I am looking for the recorded z-score of the following molecule: O=C(O)[C@H](Cc1ccccc1)n1cc(C2(O)CCCCC2)nn1 -0.976

Please look up its z-score: CCOC(=O)C[C@H]1[C@H](OC(=O)Cc2ccc3c(c2)OCO3)[C@@H](NC(=O)c2ccc3ccccc3n2)c2cc(OCCCO)ccc2N1C(=O)Cc1ccc(OC)cc1 2.14
